# Species on record: Rattus norvegicus
# assay notes: Open TG-GATES - Regimen: Single
# Assay type: toxicity, organism-based, Sprague-Dawley
# Parameters: regimen Single, gender Male, age 6 weeks
# protocol conditions: in vivo, po, 0 mg/kg, 6 h, tissue Blood, route gavage, dose level Control
# Lookup of reported Bas keyed by entry

- compound string: "Cc1cccc(Nc2cc(Cl)nc(SCC(=O)O)n2)c1C"
  Bas [%]: 0
- compound string: "O=C1CN(/N=C/c2ccc(-c3ccc([N+](=O)[O-])cc3)o2)C(O)=N1"
  Bas [%]: 0
- compound string: "O=C1NC(=O)C(c2ccccc2)(c2ccccc2)N1"
  Bas [%]: 0.6
